B1: SMARCE1 (parent)
chain: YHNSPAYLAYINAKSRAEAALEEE

Variants of: B1
Assay: protein stability index of a GFP-peptide fusion (GPS, HEK-293T) (PSI 1-6); higher = more stable;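 also: lentivirally expressed fusions sorted by FACS into six bins by GFP to DsRed ratio, PSI derived from sequencing read proportions per bin multiplied by bin number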
Conditions: c terminus: a fixed tail appended
// class assignment uses protein stability index with these ranges: class 0 (below 2), class 1 (2 to below 3), class 2 (3 or more)

Examples from the recorded data:
N12F class 1
A17Q class 2

Lab log: Y7S — assign protein stability index category
class 1

Lab log: S4H — assign protein stability index category
class 0

Lab log: E18Y — assign protein stability index category
class 1

Lab log: E22D — assign protein stability index category
class 1

Lab log: R16I — assign protein stability index category
class 1

Lab log: K14Q — assign protein stability index category
class 1

Lab log: N3P — assign protein stability index category
class 0

Lab log: K14S — assign protein stability index category
class 0

Lab log: Y7D — assign protein stability index category
class 2

Lab log: Y1C — assign protein stability index category
class 2

Lab log: L21Y — assign protein stability index category
class 0

Lab log: A13H — assign protein stability index category
class 1

Lab log: E24V — assign protein stability index category
class 1

Lab log: R16K — assign protein stability index category
class 1

Lab log: S4P — assign protein stability index category
class 0

Lab log: A19E — assign protein stability index category
class 1

Lab log: A20Q — assign protein stability index category
class 0

Lab log: K14W — assign protein stability index category
class 0

Lab log: A9E — assign protein stability index category
class 0

Lab log: E22V — assign protein stability index category
class 1

Lab log: N3W — assign protein stability index category
class 0

Lab log: A17S — assign protein stability index category
class 1

Lab log: N12S — assign protein stability index category
class 0

Lab log: S4R — assign protein stability index category
class 1

Values were extracted from the supplement of paper PMC10567573.
